From: paper PMC12603070

System: NIH-3T3 cells
Run Description: Hoechst/propidium iodide cell death assay in NIH-3T3
Assay type: cell-based
Test Conditions: Mus musculus, NIH3T3, 24 h, 20 µM, 24 h; read-out: Percentage of cell death % 24h NIH3t3
Counter-ions that a name gives are not always drawn.
Catalogue of cytotoxicity at 20 µM values
Experimental Readout: cytotoxicity at 20 µM (%)

INSERT INTO results (compound, readout_value) VALUES
  ('Cc1c(C)c2c(c(C)c1O)CCC(C)(COc1ccc(CC3SC(=O)NC3=O)cc1)O2 (stereo not drawn) [Troglitazone]', 0.791),
  ('CN(C)CCCN1c2ccccc2CCc2ccc(Cl)cc21 [Clomipramine HCl]', 7.72),
  ('CC(C)(C)C#Cc1cc(N(C(=O)[C@H]2CC[C@H](C)CC2)[C@H]2CC[C@H](O)CC2)c(C(=O)O)s1 [VX-222 (VCH-222, Lomibuvir), Lomibuvir]', 5.5),
  ('COc1cc(C(=O)NS(=O)(=O)c2ccccc2C)ccc1Cc1cn(C)c2ccc(NC(=O)OC3CCCC3)cc12 [Zafirlukast]', 0.402),
  ('CCN(CC)CCOc1ccc(C(=C(Cl)c2ccccc2)c2ccccc2)cc1 [Clomiphene citrate]', 10.1),
  ('c1ccc(-c2ccc(C(c3ccccc3)n3ccnc3)cc2)cc1 (stereo not drawn) [Bifonazole]', 0.428);

###

Catalogue of Percentage of cell death % 48h, Caco-2 values
Test system: Caco-2 cells
Type: cell-based
Test Conditions: Caco-2; 48h; 20 μM
Structures can show the parent of a compound that is named as a salt.
Experimental Readout: Percentage of cell death % 48h, Caco-2 (%)

INSERT INTO assay_data (molecule, experimental_readout, readout_value) VALUES
  ('CCCCc1oc2ccc(NS(C)(=O)=O)cc2c1C(=O)c1ccc(OCCCN(CCCC)CCCC)cc1 [Dronedarone HCl]', 'Percentage of cell death % 48h, Caco-2', 87.4152),
  ('Cl.Cl.Fc1ccc(C(c2ccc(F)cc2)N2CCN(C/C=C/c3ccccc3)CC2)cc1 [Flunarizine 2HCl]', 'Percentage of cell death % 48h, Caco-2', 3.726),
  ('Oc1cc(Cl)ccc1Oc1ccc(Cl)cc1Cl', 'Percentage of cell death % 48h, Caco-2', 14.8508),
  ('Cc1cc(Nc2cc(CN3CCOCC3)c3nc(C)c(Cc4ccc(Cl)cc4F)n3n2)n[nH]1', 'Percentage of cell death % 48h, Caco-2', 17.5299),
  ('CC(C)OC(=O)CCC/C=C\C[C@@H]1[C@@H](CC[C@@H](O)CCc2ccccc2)[C@H](O)C[C@@H]1O', 'Percentage of cell death % 48h, Caco-2', 2.117),
  ('COc1cc(C(=O)O)ccc1NC(=O)[C@@H]1N[C@@H](CC(C)(C)C)[C@](C#N)(c2ccc(Cl)cc2F)[C@H]1c1cccc(Cl)c1F', 'Percentage of cell death % 48h, Caco-2', 4.655),
  ('CCCCCCCCCCCCCCCC[N+](C)(C)C [Cetrimonium Bromide (CTAB), Cetrimonium Bromide]', 'Percentage of cell death % 48h, Caco-2', 50.4821),
  ('CCCCc1oc2ccc(NS(C)(=O)=O)cc2c1C(=O)c1ccc(OCCCN(CCCC)CCCC)cc1 [Dronedarone]', 'Percentage of cell death % 48h, Caco-2', 86.906),
  ('Cc1ccc(Sc2ccccc2N2CCNCC2)c(C)c1', 'Percentage of cell death % 48h, Caco-2', 76.1709),
  ('C=CCc1ccc(O)c(-c2cc(CC=C)ccc2O)c1', 'Percentage of cell death % 48h, Caco-2', 10.8986),
  ('CCc1cc(/C(C)=N/OCc2ccc(C3CCCCC3)c(C(F)(F)F)c2)ccc1CN1CC(C(=O)O)C1 [BAF312 (Siponimod), Siponimod]', 'Percentage of cell death % 48h, Caco-2', 2.567),
  ('CCOC(=O)C1=C(C)NC(C)=C(C(=O)OCC)C1c1ccccc1/C=C/C(=O)OC(C)(C)C', 'Percentage of cell death % 48h, Caco-2', 4.938),
  ('Cn1ncc(Cl)c1-c1cc(C(=O)N[C@H](CN)Cc2cccc(F)c2)sc1Cl', 'Percentage of cell death % 48h, Caco-2', 43.2801),
  ('COc1ccc2c(O[C@@H]3C[C@H]4C(=O)N[C@]5(C(=O)NS(=O)(=O)C6CC6)C[C@H]5/C=C\CCCCN(C)C(=O)[C@@H]4C3)cc(-c3nc(C(C)C)cs3)nc2c1C', 'Percentage of cell death % 48h, Caco-2', 5.542),
  ('CC(C)(C)c1cc(C(C)(C)C)c(NC(=O)c2c[nH]c3ccccc3c2=O)cc1O', 'Percentage of cell death % 48h, Caco-2', 14.6425);
